SUBJECT OF TEST: UniProt Q99571
MEASUREMENT NOTES: Human P2X4 HEK Cell FLIPR Assay
EXPERIMENTAL SETUP: HEK293 cells, agonist Bz-ATP at EC80; individual values listed where some fall outside detection range
Readings of IC50 for the listed compounds
Kindly provide the numeric value in nM only, without the unit symbol.

NS(=O)(=O)c1cc(NC(=O)Cc2ccccc2Cl)ccc1-n1cc(Cl)cc(Cl)c1=O | 942
NS(=O)(=O)c1cc(NC(=O)Cc2ccccc2Cl)ccc1-c1cnc(NC2CC2)nc1 | 203

Input `NS(=O)(=O)c1cc(NC(=O)Cc2cccc(Cl)c2)ccc1-c1cncc(C(F)(F)F)c1` . Output IC50: 74

# IC50 of `NS(=O)(=O)c1cc(NC(=O)Cc2ccccc2F)ccc1-c1nnc(C(F)(F)F)o1` = 1700

---

SUBJECT OF TEST: human P2X4 (Homo sapiens)
Sequence (Q99571 1-388): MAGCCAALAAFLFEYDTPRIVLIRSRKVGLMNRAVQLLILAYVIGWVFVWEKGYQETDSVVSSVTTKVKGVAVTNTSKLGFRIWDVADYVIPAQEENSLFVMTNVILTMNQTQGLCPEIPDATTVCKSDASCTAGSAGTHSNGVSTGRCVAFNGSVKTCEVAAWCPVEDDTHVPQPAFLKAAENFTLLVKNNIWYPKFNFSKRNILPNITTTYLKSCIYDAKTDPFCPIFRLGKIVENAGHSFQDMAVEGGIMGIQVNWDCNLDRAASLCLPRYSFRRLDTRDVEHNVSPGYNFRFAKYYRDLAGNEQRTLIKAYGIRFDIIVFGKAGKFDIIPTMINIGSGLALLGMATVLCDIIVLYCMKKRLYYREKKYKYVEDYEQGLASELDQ
MEASUREMENT NOTES: Human P2X4 HEK Cell FLIPR Assay
EXPERIMENTAL SETUP: HEK293 cells, agonist Bz-ATP at EC80; individual values listed where some fall outside detection range
We begin with a simple list: items and their reported pIC50.
Remember, pIC50 is on a log scale: it is -log10 of the molar concentration.

Consider the following illustrative entries.
NS(=O)(=O)c1cc(NC(=O)Cc2ccccc2Cl)ccc1-n1cnc(Br)c1 [Example 42] | 7.62
Cc1cc(C(F)(F)F)nn1-c1ccc(NC(=O)Cc2ccccc2Cl)cc1S(N)(=O)=O [Example 15] | 6.42

Continue with the compound presented below.
Lab note: CC(C)(O)CCn1cc(-c2ccc(NC(=O)Cc3ccccc3Cl)cc2S(N)(=O)=O)cn1 [Example 287] gave pIC50 of 7.51

---

SUBJECT OF TEST: human P2X4 (Homo sapiens)
MEASUREMENT NOTES: Human P2X4 HEK Cell FLIPR Assay
Assay type: cell-based
EXPERIMENTAL SETUP: HEK293, HEK293 cells, agonist Bz-ATP at EC80; percentage of maximal inhibition; read-out: Human P2X4 HEK Cells (FLIPR Assay) avg Efficacy [%]
TEST READOUT: Emax (%)
State just the number; it will be interpreted in %.

Take a look at these entries with their results.
COCCc1cnn(-c2ccc(NC(=O)Cc3ccccc3Cl)cc2S(N)(=O)=O)c1 | 83
N#Cc1cnn(-c2ccc(NC(=O)Cc3ccccc3[N+](=O)[O-])cc2S(N)(=O)=O)c1 | 77
NS(=O)(=O)c1cc(NC(=O)Cc2ccccc2F)ccc1-n1cc(C(F)F)cn1 | 84
NS(=O)(=O)c1cc(NC(=O)Cc2ccccc2C(F)F)ccc1-n1cc(Cl)cn1 | 94
NS(=O)(=O)c1cc(NC(=O)Cc2ccccc2Cl)ccc1-n1cnc(Br)c1 | 71

For this compound ( `NS(=O)(=O)c1c(-c2cnn(C(F)F)c2)ccc(NC(=O)Cc2ccccc2Cl)c1F` ), measured Emax is 90

Noted for `NS(=O)(=O)c1cc(NC(=O)Cc2ccccc2Cl)cc(Cl)c1-n1cc(C(F)(F)F)cn1` : its Emax reads 69

Form field Emax, entry `Cc1ccc(CC(=O)Nc2ccc(-n3cc(C(F)(F)F)nn3)c(S(N)(=O)=O)c2)cc1` : 85

Lab book: Emax of `NS(=O)(=O)c1cc(NC(=O)Cc2ccccc2Cl)ccc1-n1ncnc1C1CC1` noted as 81
